Attribution: patent US20230203081A1

system: E. faecalis ATCC 29212; test: MIC (broth microdilution or agar dilution, CLSI); format: cell-based; settings: Enterococcus faecalis, ATCC29212, E. faecalis ATCC 29212; read-out: MIC
Listed next: entries and their corresponding MIC.

Compound | MIC
CC[C@@H]1CCO[C@@H]2[C@H](CN[C@@H]2C(=O)N[C@H]([C@H](C)Cl)[C@H]2OC(SC)[C@H](O)[C@H](O)C2O)C1 (some centres unmarked) [FSA-10-10-012] | 0.25 µg/mL
CS[C@H]1O[C@H]([C@H](NC(=O)[C@H]2NC[C@@H]3C[C@H](CC(C)C)CCO[C@H]32)[C@H](C)Sc2nnc(N)s2)[C@H](O)[C@H](O)[C@H]1O [FSA-09-04-094] | 2 µg/mL
CSC1O[C@H]([C@H](NC(=O)[C@@H]2[C@@H]3OCC[C@H](C4CCCCC4)C[C@H]3CN2C)[C@H](C)Cl)CC(O)[C@H]1O (some centres unmarked) [FSA-513002a] | 2 µg/mL
CS[C@H]1O[C@H]([C@H](NC(=O)[C@H]2NC[C@@H]3C[C@H](CC(C)C)CCO[C@H]32)[C@H](C)Sc2ccc(CN3CCNCC3)cc2)[C@H](O)[C@H](O)[C@H]1O [FSA-09-05-076] | 4 µg/mL
CSC1O[C@H]([C@H](NC(=O)[C@H]2NC[C@@H]3C[C@H](CCCF)CCO[C@H]32)[C@H](C)Cl)C(O)C(O)[C@H]1O (some centres unmarked) [FSA-12-03-035] | 0.25 µg/mL

----------
Overview of recorded MIC for various compounds
system: S. aureus BAA 977 iErmA; assay: microbe, parasite or virus in culture; type: cell-based; conditions: Staphylococcus aureus, BAA977

Compound | Units Label | Qualifying Sign | MIC
CSC1O[C@H]([C@H](NC(=O)[C@@H]2[C@@H]3OCC[C@H](CC(C)C)C[C@H]3CN2C)[C@H](C)Cl)CC(O)[C@H]1O (some centres unmarked) [FSA-513003a] | µg/mL | = | 0.12
CSC1O[C@H]([C@H](NC(=O)[C@H]2NC[C@@H]3C[C@@H](CC(C)C)CCO[C@H]32)[C@H](C)Cl)CC(O)[C@H]1O (some centres unmarked) [FSA-513018a] | µg/mL | ≤ | 0.06
CSC1O[C@H]([C@H](NC(=O)[C@@H]2[C@@H]3OCC[C@@H](C4CCCC4)C[C@H]3CN2C)[C@H](C)Cl)CC(O)[C@H]1O (some centres unmarked) [FSA-513001b] | µg/mL | = | 0.12
CSC1O[C@H]([C@H](NC(=O)[C@H]2NC[C@@H]3C[C@H](CC(C)C)CCO[C@H]32)[C@H](C)Cl)C(O)[C@@H](O)[C@H]1O (some centres unmarked) [FSA-513018b] | µg/mL | ≤ | 0.06
CCC[C@@H]1C[C@@H](C(=O)N[C@@H]([C@H]2O[C@H](SC)[C@H](O)[C@@H](O)[C@H]2O)[C@H](C)Cl)N(C)C1 [Clindamycin, clindamycin, reference compound] | µg/mL | = | 0.12

----------
tested on: S. aureus MP-549 msrA; experiment: microbe, parasite or virus in culture; type: cell-based; details: Staphylococcus aureus, MP549MSRA, S. aureus MP-549 msrA
Observation Type: MIC (µg/mL)

Compound | Observation Type | Units Label | Qualifying Sign | Measured Value
CSC1O[C@H]([C@H](NC(=O)[C@H]2NC[C@@H]3C[C@@H](CC(C)C)CCO[C@H]32)[C@H](C)Cl)CC(O)[C@H]1O (some centres unmarked) [FSA-513018a] | MIC | µg/mL | ≤ | 0.06
CSC1O[C@H]([C@H](NC(=O)[C@H]2NC[C@@H]3C[C@H](CC(C)C)CCO[C@H]32)[C@H](C)Cl)C(O)[C@@H](O)[C@H]1O (some centres unmarked) [FSA-513018b] | MIC | µg/mL | ≤ | 0.06
CSC1O[C@H]([C@H](NC(=O)[C@@H]2[C@@H]3OCC[C@H](CC(C)C)C[C@H]3CN2C)[C@H](C)Cl)CC(O)[C@H]1O (some centres unmarked) [FSA-513003a] | MIC | µg/mL | = | 0.12
CCC[C@@H]1C[C@@H](C(=O)N[C@@H]([C@H]2O[C@H](SC)[C@H](O)[C@@H](O)[C@H]2O)[C@H](C)Cl)N(C)C1 [Clindamycin, clindamycin, reference compound] | MIC | µg/mL | = | 0.12
CSC1O[C@H]([C@H](NC(=O)[C@@H]2[C@@H]3OCC[C@@H](C4CCCC4)C[C@H]3CN2C)[C@H](C)Cl)CC(O)[C@H]1O (some centres unmarked) [FSA-513001b] | MIC | µg/mL | = | 0.12

----------
Tested on: broad panel of different clinical isolates
Experiment: microbe, parasite or virus in culture
Type: cell-based
Settings: Acinetobacter baumannii, A. baumannii HAV#653; Clinical
Method: Minimum inhibitory concentrations (MICs) were determined by broth microdilution method or agar dilution method following the Clinical and Laboratory Standards Institute guidelines. Standard bacterial strains were obtained from American Type Culture Collection (ATCC). Other bacterial strains were obtained from hospitals and commercial sources, so noted in Table 11. […] Specialized procedures were employed for streptococcal and anaerobic strains. […]
Labelling field: enter criterion met if recorded MIC is less than 2 µg/mL. Enter criterion not met if it equals or exceeds that cut-off.

Compound | Target Or System | Class
CSC1O[C@H]([C@H](NC(=O)[C@H]2NC[C@@H]3C[C@H](CC(C)C)CCO[C@H]32)[C@H](C)Cl)C(O)[C@@H](O)[C@H]1O (stereo partly shown) [FSA-513018b] | broad panel of different clinical isolates | criterion not met
C[C@H]1COc2c(N3CCN(C)CC3)c(F)cc3c(=O)c(C(=O)O)cn1c23 | broad panel of different clinical isolates | criterion met
C[C@H]1c2cccc(O)c2C(=O)C2=C(O)[C@]3(O)C(=O)C(C(N)=O)=C(O)[C@@H](N(C)C)[C@@H]3[C@@H](O)[C@@H]21 | broad panel of different clinical isolates | criterion met
CN[C@H](CC(C)C)C(=O)N[C@H]1C(=O)N[C@@H](CC(N)=O)C(=O)N[C@H]2C(=O)N[C@H]3C(=O)N[C@H](C(=O)N[C@H](C(=O)O)c4cc(O)cc(O)c4-c4cc3ccc4O)[C@H](O)c3ccc(c(Cl)c3)Oc3cc2cc(c3O[C@@H]2O[C@H](CO)[C@@H](O)[C@H](O)[C@H]2O[C@H]2C[C@](C)(N)[C@H](O)[C@H](C)O2)Oc2ccc(cc2Cl)[C@H]1O | broad panel of different clinical isolates | criterion not met
CC(=O)NC[C@H]1CN(c2ccc(N3CCOCC3)c(F)c2)C(=O)O1 | broad panel of different clinical isolates | criterion not met
CCC[C@@H]1C[C@@H](C(=O)N[C@@H]([C@H]2O[C@H](SC)[C@H](O)[C@@H](O)[C@H]2O)[C@H](C)Cl)N(C)C1 [Clindamycin, clindamycin, reference compound] | broad panel of different clinical isolates | criterion not met

----------
system: broad panel of different clinical isolates; assay: microbe, parasite or virus in culture; type: cell-based; conditions: Acinetobacter baumannii, A. baumannii HAV#660; Clinical

Compound | Qualifying Sign | MIC [µg/mL]
CSC1O[C@H]([C@H](NC(=O)[C@H]2NC[C@@H]3C[C@H](CC(C)C)CCO[C@H]32)[C@H](C)Cl)C(O)[C@@H](O)[C@H]1O (stereo partly shown) [FSA-513018b] | = | 16
CO/N=C(\C(=O)N[C@@H]1C(=O)N2C(C(=O)O)=C(CSc3nc(=O)c(=O)[nH]n3C)CS[C@H]12)c1csc(N)n1 | = | 32
C[C@H]1COc2c(N3CCN(C)CC3)c(F)cc3c(=O)c(C(=O)O)cn1c23 | = | 64
CCC[C@@H]1C[C@@H](C(=O)N[C@@H]([C@H]2O[C@H](SC)[C@H](O)[C@@H](O)[C@H]2O)[C@H](C)Cl)N(C)C1 [Clindamycin, clindamycin, reference compound] | > | 128
CN[C@H](CC(C)C)C(=O)N[C@H]1C(=O)N[C@@H](CC(N)=O)C(=O)N[C@H]2C(=O)N[C@H]3C(=O)N[C@H](C(=O)N[C@H](C(=O)O)c4cc(O)cc(O)c4-c4cc3ccc4O)[C@H](O)c3ccc(c(Cl)c3)Oc3cc2cc(c3O[C@@H]2O[C@H](CO)[C@@H](O)[C@H](O)[C@H]2O[C@H]2C[C@](C)(N)[C@H](O)[C@H](C)O2)Oc2ccc(cc2Cl)[C@H]1O | > | 128
C[C@H]1c2cccc(O)c2C(=O)C2=C(O)[C@]3(O)C(=O)C(C(N)=O)=C(O)[C@@H](N(C)C)[C@@H]3[C@@H](O)[C@@H]21 | = | 1
CC(=O)NC[C@H]1CN(c2ccc(N3CCOCC3)c(F)c2)C(=O)O1 | = | 64
